Attribution: patent US12110287B2

- system-tested: human Nav1.5 channels (Homo sapiens)
- Construct: expressed in transfected cells; host or cells: HEK293 cells
- assay-text: FRET assay (FDSS membrane potential)
- Format: cell-based
- cond: HEK293 cells expressing human Nav1.5 channels, read-out: activity (IC50) against Nav1.5
result-type: IC50

I am curious: what IC50 value has been reported for O=C(N[C@@H]1CCCN(c2ncc(C(F)(F)F)cc2Cl)C1)c1ccnc(NC(=O)C2CC2)c1 ?
> 30 µM

* * *

- system-tested: human Nav1.8 channels (Homo sapiens)
- Sequence (Q9Y5Y9 whole entry): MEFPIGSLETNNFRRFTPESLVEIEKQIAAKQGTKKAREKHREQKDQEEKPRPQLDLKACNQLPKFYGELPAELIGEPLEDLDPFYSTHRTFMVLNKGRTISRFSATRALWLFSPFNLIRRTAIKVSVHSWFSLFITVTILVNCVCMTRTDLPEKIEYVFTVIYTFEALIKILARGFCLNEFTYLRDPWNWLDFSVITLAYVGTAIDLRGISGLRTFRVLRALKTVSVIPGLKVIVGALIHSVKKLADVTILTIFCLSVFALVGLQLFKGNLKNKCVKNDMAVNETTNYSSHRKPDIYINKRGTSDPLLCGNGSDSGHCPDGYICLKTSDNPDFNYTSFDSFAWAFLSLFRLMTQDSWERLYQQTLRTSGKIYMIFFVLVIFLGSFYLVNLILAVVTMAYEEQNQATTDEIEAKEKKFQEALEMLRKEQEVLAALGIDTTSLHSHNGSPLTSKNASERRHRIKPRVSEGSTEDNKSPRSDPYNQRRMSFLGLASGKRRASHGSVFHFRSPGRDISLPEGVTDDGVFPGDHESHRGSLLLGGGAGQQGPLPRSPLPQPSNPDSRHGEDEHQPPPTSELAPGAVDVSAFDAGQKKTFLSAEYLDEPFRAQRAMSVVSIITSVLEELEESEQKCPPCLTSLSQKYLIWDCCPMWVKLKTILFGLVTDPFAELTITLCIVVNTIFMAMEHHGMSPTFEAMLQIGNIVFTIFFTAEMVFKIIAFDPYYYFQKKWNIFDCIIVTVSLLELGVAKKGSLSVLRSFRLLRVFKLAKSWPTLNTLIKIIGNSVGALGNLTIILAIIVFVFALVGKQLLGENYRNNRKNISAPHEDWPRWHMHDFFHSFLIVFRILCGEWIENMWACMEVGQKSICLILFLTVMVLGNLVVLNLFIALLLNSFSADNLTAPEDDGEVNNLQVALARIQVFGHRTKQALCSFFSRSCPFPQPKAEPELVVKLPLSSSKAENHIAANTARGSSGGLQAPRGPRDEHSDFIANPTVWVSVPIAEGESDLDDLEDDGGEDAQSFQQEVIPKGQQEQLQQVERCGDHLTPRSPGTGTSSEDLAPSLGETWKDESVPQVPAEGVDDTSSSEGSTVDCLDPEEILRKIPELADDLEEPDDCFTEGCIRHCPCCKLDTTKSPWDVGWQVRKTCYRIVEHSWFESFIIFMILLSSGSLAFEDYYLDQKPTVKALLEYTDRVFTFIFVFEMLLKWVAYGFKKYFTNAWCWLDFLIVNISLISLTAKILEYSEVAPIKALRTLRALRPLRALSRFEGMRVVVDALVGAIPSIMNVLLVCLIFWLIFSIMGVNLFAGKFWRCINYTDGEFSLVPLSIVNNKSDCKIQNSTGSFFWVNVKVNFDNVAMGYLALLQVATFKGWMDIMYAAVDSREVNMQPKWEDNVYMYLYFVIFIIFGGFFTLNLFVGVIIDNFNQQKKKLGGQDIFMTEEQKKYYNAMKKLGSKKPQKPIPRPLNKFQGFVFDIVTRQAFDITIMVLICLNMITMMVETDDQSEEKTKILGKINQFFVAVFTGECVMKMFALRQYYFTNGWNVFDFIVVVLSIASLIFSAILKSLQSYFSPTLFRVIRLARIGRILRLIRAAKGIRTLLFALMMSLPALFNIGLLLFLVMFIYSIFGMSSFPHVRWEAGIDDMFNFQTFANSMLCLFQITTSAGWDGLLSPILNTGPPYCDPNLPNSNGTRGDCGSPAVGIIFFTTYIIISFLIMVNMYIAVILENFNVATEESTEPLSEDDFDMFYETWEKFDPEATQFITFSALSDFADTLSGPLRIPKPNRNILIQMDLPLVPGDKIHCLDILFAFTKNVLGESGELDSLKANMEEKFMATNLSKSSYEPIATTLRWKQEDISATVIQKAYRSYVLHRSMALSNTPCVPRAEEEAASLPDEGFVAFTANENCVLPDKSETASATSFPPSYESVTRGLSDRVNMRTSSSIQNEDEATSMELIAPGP
- assay-text: FRET assay (FDSS membrane potential)
- cond: HEK293 cells expressing human Nav1.8 channels, read-out: IC50 against Nav1.8
result-type: pIC50
Scale for pIC50: -log10 of concentration given in mol/L; no unit attached.

Short answer please: pIC50, human Nav1.8 channels (Homo sapiens), entry O=C(N[C@@H]1CCCN(c2ncc(C(F)(F)F)cc2Cl)C1)c1ccnc(NC(=O)C2CC2)c1 [Example 7]
5.70

* * *

Each entry below lists one item and its recorded pKi value.
- system-tested: Nav1.7 (Homo sapiens)
- Sequence (Q15858 whole entry): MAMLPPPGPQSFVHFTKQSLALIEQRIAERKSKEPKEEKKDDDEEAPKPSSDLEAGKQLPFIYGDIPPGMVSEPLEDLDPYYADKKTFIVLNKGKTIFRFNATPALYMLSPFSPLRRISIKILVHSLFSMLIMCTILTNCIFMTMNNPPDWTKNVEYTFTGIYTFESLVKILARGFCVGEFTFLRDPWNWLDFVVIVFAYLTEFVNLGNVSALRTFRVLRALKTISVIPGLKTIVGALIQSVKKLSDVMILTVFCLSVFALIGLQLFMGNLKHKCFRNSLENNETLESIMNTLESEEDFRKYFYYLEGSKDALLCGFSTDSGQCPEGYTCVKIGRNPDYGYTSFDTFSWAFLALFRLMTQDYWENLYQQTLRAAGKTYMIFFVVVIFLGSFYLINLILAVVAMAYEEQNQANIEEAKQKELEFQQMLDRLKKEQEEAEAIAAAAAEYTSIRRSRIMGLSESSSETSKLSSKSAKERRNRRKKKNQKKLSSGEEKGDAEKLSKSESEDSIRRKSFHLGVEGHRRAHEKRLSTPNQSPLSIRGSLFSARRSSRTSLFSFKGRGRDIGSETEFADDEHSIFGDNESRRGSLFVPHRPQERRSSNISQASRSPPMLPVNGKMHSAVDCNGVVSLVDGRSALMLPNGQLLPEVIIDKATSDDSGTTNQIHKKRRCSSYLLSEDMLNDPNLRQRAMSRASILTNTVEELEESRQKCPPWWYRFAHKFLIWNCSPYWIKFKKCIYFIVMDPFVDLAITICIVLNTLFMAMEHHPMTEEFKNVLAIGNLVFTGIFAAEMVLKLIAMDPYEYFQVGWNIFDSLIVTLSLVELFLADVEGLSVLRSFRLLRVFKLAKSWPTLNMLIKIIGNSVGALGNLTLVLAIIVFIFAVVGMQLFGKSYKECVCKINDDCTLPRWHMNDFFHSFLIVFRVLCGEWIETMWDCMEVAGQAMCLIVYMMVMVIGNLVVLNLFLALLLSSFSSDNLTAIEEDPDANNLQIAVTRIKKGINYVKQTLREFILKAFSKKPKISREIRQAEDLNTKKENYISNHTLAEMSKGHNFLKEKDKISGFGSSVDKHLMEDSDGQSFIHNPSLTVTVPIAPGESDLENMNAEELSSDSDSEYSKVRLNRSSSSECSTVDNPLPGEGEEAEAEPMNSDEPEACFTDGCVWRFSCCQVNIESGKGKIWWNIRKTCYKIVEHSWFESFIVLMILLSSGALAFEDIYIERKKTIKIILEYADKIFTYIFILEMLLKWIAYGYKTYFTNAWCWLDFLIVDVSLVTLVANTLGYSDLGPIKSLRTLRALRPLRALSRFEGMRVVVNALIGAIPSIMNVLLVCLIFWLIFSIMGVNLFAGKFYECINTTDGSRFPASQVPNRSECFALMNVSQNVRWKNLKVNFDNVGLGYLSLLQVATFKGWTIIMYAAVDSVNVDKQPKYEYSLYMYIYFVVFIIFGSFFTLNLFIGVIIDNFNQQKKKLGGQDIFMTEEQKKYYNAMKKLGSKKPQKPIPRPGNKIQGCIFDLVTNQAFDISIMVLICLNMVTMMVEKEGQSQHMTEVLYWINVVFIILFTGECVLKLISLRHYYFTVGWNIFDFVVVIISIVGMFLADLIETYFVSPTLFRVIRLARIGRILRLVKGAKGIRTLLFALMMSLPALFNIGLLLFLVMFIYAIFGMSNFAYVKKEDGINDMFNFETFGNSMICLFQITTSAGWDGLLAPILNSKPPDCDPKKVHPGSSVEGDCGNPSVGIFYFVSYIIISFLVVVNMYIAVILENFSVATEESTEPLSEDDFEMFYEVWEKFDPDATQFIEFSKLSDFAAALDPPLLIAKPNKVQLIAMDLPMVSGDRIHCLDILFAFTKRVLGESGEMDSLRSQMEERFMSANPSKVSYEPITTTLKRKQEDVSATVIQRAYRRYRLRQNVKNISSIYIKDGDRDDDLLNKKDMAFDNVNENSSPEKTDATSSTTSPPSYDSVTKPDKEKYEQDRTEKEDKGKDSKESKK
- assay-text: Electrophysiology assay (whole cell patch clamp), affinity to inactivated state
- cond: affinity to inactivated state (Kinact), read-out: activity (Ki) against Nav1.7
pKi: −log10 of the molar value.

compound	pKi
O=C(N[C@@H]1CCCN(c2ncc(C(F)(F)F)cc2Cl)C1)c1ccnc(NC(=O)C2CC2)c1 [Example 7]	> 6.70

I'd like to know its pKi. The compound in question is O=C(N[C@@H]1CCN(c2ncc(C(F)(F)F)cc2Cl)C1)c1ccnc(NC(=O)C2CC2)c1 [Example 9]
> 6.70
